Data provenance is ChEMBL document CHEMBL4118033.

- Test system: UO-31
- test_protocol: Antiproliferative activity against human UO31 cells at 10 uM incubated for 48 hrs by sulforhodamine B assay
- Assay type: functional, cell-based
The source made the active and inactive calls. No cut-off for these calls is given here.
// classify into class 1 (active), class 0 (inactive)

| molecular_string | answer_label |
| --- | --- |
| CC(=O)O[C@H](C)[C@H]1O[C@H]2CC(=O)O[C@H]2[C@@H]1O | class 0 |

Could you please tell me the result logged for `O=C1C[C@H]2O[C@H]([C@@H](O)c3ccccc3)[C@H](O)[C@H]2O1` in this assay?
class 1

Could you please tell me the result logged for `O=C1C[C@H]2O[C@H]([C@H](O)c3ccccc3)[C@H](O)[C@H]2O1` in this assay?
class 1

Could you please tell me the result logged for `CC(=O)O[C@@H](C)[C@@H]1O[C@@H]2CC(=O)O[C@@H]2[C@H]1O` in this assay?
class 0

Could you please tell me the result logged for `CC(=O)O[C@H](C)[C@@H]1O[C@@H]2CC(=O)O[C@@H]2[C@H]1O` in this assay?
class 0

Could you please tell me the result logged for `CC(=O)O[C@@H](C)[C@H]1O[C@H]2CC(=O)O[C@H]2[C@@H]1O` in this assay?
class 0

Could you please tell me the result logged for `O=C(/C=C/c1ccccc1)O[C@H](c1ccccc1)[C@@H]1O[C@@H]2CC(=O)O[C@@H]2[C@H]1O` in this assay?
class 1
